Tested on: SR leukemia
Assay: NCI-60 one-dose screen, 48 h (100 = growth as untreated, 0 = no growth, -100 = all killed)
Details: 10 µM unless noted
This is part of a sample that, as a whole, favours compounds with a hit. Of some 83,000 tested, about 20% had one in any assay.
MEASURED ATTRIBUTE: growth (%)
Give a bare numeral; the unit % is implied.

Challenge: Entry Clc1ncnc2nc[nH]c12 , system SR leukemia: what growth was measured?
Response given: 102

Challenge: Another: O=C(O)Cc1cccc2ccccc12
Response given: 94.5

Challenge: Another: CCOC(=O)c1c(C)[nH]c(C)c1C=O
Response given: 84.4

Challenge: Another: Cc1ccc(N)c(S(=O)(=O)O)c1
Response given: 79

Challenge: Another: CC(C)c1ncc([N+](=O)[O-])n1C
Response given: 106

Challenge: Another: CC(C)C(C)(C)C(=O)C(C)(C)C(C)(C)C
Response given: 100

Challenge: Another: COC(c1ccc2c(c1)OCO2)C(C)Br (configuration not stated)
Response given: 88.6
